The compounds listed here are annotated with their microsomal CLint.
- EXPERIMENT_DESCRIPTION: Intrinsic clearance in human liver microsomes
- Format: ADME, Microsome
- PARTICULARS: read-out: CLH
PROPERTY_LABEL: microsomal CLint (µL/min/mg)

>>> print(df.to_string())
                        structure_as_smiles  sign_qualifier  data_value
0  FC(F)(F)n1cc(-c2n[nH]c3cc(Cl)c(N[C@@H]4CCN(C5COC5)C4)cc23)cn1               =        15.4
1  Cn1cc(-c2n[nH]c3cc(Cl)c(N[C@@H]4CCN(C5COC5)C4)cc23)cn1               =         6.9
2  COc1ccc(-n2cc(-c3n[nH]c4cc(Cl)c(N[C@@H]5CCN(C6COC6)C5)cc34)cn2)cc1               =         129
3  COc1ccc(-n2cc(-c3n[nH]c4cc(Cl)c(N[C@H]5CNCC56CC6)cc34)cn2)cc1               =          83
4  Cn1cc(-c2n[nH]c3cc(Cl)c(N[C@@H]4CCNC4)cc23)cn1               <          12

---

- EXPERIMENT_DESCRIPTION: Permeability across apical to basolateral side in human Caco-2 cells
- Type: ADME, cell-based
- PARTICULARS: read-out: permeability
# label = 1.0 if Papp A→B < 10 ×10⁻⁶ cm/s else 0.0

In [3]: df
Out[3]:
                        structure_as_smiles  class_label
0  Cn1cc(-c2n[nH]c3cc(Cl)c(N[C@@H]4CCNC4)cc23)cn1          1.0
1  Cn1cc(-c2n[nH]c3cc(Cl)c(N[C@@H]4CCN(C5COC5)C4)cc23)cn1          0.0
2  COc1ccc(-n2cc(-c3n[nH]c4cc(Cl)c(N[C@H]5CNCC56CC6)cc34)cn2)cc1          1.0
3  COc1ccc(-n2cc(-c3n[nH]c4cc(Cl)c(N[C@@H]5CCN(C6COC6)C5)cc34)cn2)cc1          0.0
4  FC(F)(F)n1cc(-c2n[nH]c3cc(Cl)c(N[C@@H]4CCN(C5COC5)C4)cc23)cn1          0.0

---

- EXPERIMENT_DESCRIPTION: AUC (0 to infinity) in mouse at 5 mg/kg, po
- Assay type: ADME, organism-based
- Set-up: route oral, time infinity, dose 5 mg/kg
- PARTICULARS: in vivo
Consider the following compounds and their measured AUC(0-inf) readings.
PROPERTY_LABEL: AUC(0-inf) (ng·h/mL)

In [3]: df
Out[3]:
                        structure_as_smiles  property_label  data_value
0  COc1ccc(-n2cc(-c3n[nH]c4cc(Cl)c(N[C@H]5CNCC56CC6)cc34)cn2)cc1      AUC(0-inf)         129
1  COc1ccc(-n2cc(-c3n[nH]c4cc(Cl)c(N[C@@H]5CCN(C6COC6)C5)cc34)cn2)cc1      AUC(0-inf)        1620
2  FC(F)(F)n1cc(-c2n[nH]c3cc(Cl)c(N[C@@H]4CCN(C5COC5)C4)cc23)cn1      AUC(0-inf)         573
3  Cn1cc(-c2n[nH]c3cc(Cl)c(N[C@@H]4CCN(C5COC5)C4)cc23)cn1      AUC(0-inf)         396

---

- TARGET_ENTITY: Tyrosine-protein kinase receptor UFO (Homo sapiens)
- Sequence (P30530 whole entry): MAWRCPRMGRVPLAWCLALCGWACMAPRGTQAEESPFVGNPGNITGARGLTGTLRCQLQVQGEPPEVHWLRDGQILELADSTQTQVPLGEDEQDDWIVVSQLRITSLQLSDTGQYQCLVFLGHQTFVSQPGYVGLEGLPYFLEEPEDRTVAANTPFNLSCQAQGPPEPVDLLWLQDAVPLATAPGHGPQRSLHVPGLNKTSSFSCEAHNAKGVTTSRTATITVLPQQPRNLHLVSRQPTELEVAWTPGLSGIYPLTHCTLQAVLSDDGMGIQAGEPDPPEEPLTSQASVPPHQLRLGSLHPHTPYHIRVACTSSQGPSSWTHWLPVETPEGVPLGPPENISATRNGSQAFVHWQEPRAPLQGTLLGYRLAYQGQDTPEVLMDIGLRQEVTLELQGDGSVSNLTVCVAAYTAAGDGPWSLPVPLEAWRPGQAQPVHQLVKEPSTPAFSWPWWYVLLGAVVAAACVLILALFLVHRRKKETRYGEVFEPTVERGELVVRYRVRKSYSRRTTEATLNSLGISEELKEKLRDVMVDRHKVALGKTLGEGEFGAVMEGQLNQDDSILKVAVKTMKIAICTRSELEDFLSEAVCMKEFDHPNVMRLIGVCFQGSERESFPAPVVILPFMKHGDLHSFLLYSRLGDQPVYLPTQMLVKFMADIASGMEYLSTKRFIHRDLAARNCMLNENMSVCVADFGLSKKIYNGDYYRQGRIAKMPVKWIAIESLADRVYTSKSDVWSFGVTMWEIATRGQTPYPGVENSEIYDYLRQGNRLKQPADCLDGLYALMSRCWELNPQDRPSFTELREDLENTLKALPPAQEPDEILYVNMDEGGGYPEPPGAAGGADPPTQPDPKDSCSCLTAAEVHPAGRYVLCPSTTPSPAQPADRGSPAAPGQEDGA
- EXPERIMENT_DESCRIPTION: Inhibition of Axl (unknown origin) using 5'FAM labeled KKKKEEIYFFF-NH2 peptide as substrate incubated for 1.5 hrs
pIC50: −log10 of the molar value.
Label scheme for pIC50: lower than 5 is f, 5 and above is t.

>>> df
                        structure_as_smiles  class_label
0                       Nc1ccc(Br)c2ccncc12            f
1                       Cc1cnc2[nH]ccc2c1Cl            f
2                O=C(O)c1ccc2c(Br)n[nH]c2c1            f
3  N#Cc1ccc(-n2cc(-c3n[nH]c4cc(Cl)c(N[C@@H]5CCNC5)cc34)cn2)cc1            t
4                     Nc1ccc2[nH]nc(Br)c2c1            f
5                        Clc1ccnc2[nH]ccc12            f

---

- EXPERIMENT_DESCRIPTION: Permeability across basolateral to apical side in human Caco-2 cells
- Type: ADME, cell-based
- PARTICULARS: read-out: permeability
With a cut-off of 9 ×10⁻⁶ cm/s, any Papp B→A strictly below it is called rule met; any Papp B→A meeting it or above is called rule not met.

>>> df
                        structure_as_smiles   class_label
0  COc1ccc(-n2cc(-c3n[nH]c4cc(Cl)c(N[C@H]5CNCC56CC6)cc34)cn2)cc1      rule met
1  FC(F)(F)n1cc(-c2n[nH]c3cc(Cl)c(N[C@@H]4CCN(C5COC5)C4)cc23)cn1  rule not met
2  Cn1cc(-c2n[nH]c3cc(Cl)c(N[C@@H]4CCN(C5COC5)C4)cc23)cn1  rule not met
3  Cn1cc(-c2n[nH]c3cc(Cl)c(N[C@@H]4CCNC4)cc23)cn1      rule met
4  COc1ccc(-n2cc(-c3n[nH]c4cc(Cl)c(N[C@@H]5CCN(C6COC6)C5)cc34)cn2)cc1      rule met

---

- EXPERIMENT_DESCRIPTION: Cmax in mouse at 5 mg/kg, po
- Format: ADME, organism-based
- Design: route oral, dose 5 mg/kg
- PARTICULARS: in vivo
PROPERTY_LABEL: Cmax (ng/mL)

>>> df
                        structure_as_smiles  property_label  data_value
0  COc1ccc(-n2cc(-c3n[nH]c4cc(Cl)c(N[C@@H]5CCN(C6COC6)C5)cc34)cn2)cc1            Cmax         460
1  Cn1cc(-c2n[nH]c3cc(Cl)c(N[C@@H]4CCN(C5COC5)C4)cc23)cn1            Cmax         126
2  FC(F)(F)n1cc(-c2n[nH]c3cc(Cl)c(N[C@@H]4CCN(C5COC5)C4)cc23)cn1            Cmax         258
3  COc1ccc(-n2cc(-c3n[nH]c4cc(Cl)c(N[C@H]5CNCC56CC6)cc34)cn2)cc1            Cmax          53

---

- EXPERIMENT_DESCRIPTION: Intrinsic clearance in mouse liver microsomes
- Type: ADME, Microsome
- PARTICULARS: read-out: CLH
PROPERTY_LABEL: microsomal CLint (µL/min/mg)

                        structure_as_smiles  data_value
0  COc1ccc(-n2cc(-c3n[nH]c4cc(Cl)c(N[C@H]5CNCC56CC6)cc34)cn2)cc1        5.14
1  FC(F)(F)n1cc(-c2n[nH]c3cc(Cl)c(N[C@@H]4CCN(C5COC5)C4)cc23)cn1        43.9
2  Cn1cc(-c2n[nH]c3cc(Cl)c(N[C@@H]4CCN(C5COC5)C4)cc23)cn1        15.2
3  COc1ccc(-n2cc(-c3n[nH]c4cc(Cl)c(N[C@@H]5CCN(C6COC6)C5)cc34)cn2)cc1        44.8
4  Cn1cc(-c2n[nH]c3cc(Cl)c(N[C@@H]4CCNC4)cc23)cn1        9.38

---

- TARGET_ENTITY: Tyrosine-protein kinase receptor UFO (Homo sapiens)
- EXPERIMENT_DESCRIPTION: Displacement of K5 tracer from Axl (unknown origin) expressed in human HEK293 cells cotransfected with NanoLuc measured after 2 hrs by NanoBRET assay
- Format: cell-based
pIC50: −log10 of the molar value.
Readings of pIC50 for the listed compounds
PROPERTY_LABEL: pIC50

>>> df
                         structure_as_smiles  sign_qualifier  data_value
 0  COc1ccc(-n2cc(-c3n[nH]c4cc(Cl)c(N[C@@H]5CCNC5)cc34)cn2)cc1               =        6.43
 1  COc1ccc(-n2cc(-c3n[nH]c4cc(Cl)c(N[C@H]5CNCC56CC6)cc34)cn2)cc1               =        6.05
 2  FC(F)(F)n1cc(-c2n[nH]c3cc(Cl)c(N[C@@H]4CCN(C5COC5)C4)cc23)cn1               =        4.58
 3  CN1CC[C@@H](Nc2cc3c(-c4cnn(C)c4)n[nH]c3cc2Cl)C1               =        5.05
 4  N#Cc1cccc(-n2cc(-c3n[nH]c4cc(Cl)c(N[C@@H]5CCNC5)cc34)cn2)c1               =        5.69
 5  COc1ccc(-n2cc(-c3n[nH]c4cc(Cl)c(N[C@@H]5CCN(C6COC6)C5)cc34)cn2)cc1               =        4.94
 6  Cn1cc(-c2n[nH]c3cc(Cl)c(N[C@@H]4CCNC4)cc23)cn1               =        5.50
 7  N#Cc1ccc(-n2cc(-c3n[nH]c4cc(Cl)c(N[C@@H]5CCNC5)cc34)cn2)cc1               =        6.06
 8  Cn1cc(-c2n[nH]c3cc(Cl)c(N[C@@H]4CCN(C5COC5)C4)cc23)cn1               =        4.61
 9  FCCn1cc(-c2n[nH]c3cc(Cl)c(N[C@@H]4CCNC4)cc23)cn1               =        5.46
10  Cn1cc(-c2n[nH]c3ccc(N[C@@H]4CCNC4)cc23)cn1               =        4.68
11  N#Cc1ccccc1-n1cc(-c2n[nH]c3cc(Cl)c(N[C@@H]4CCNC4)cc23)cn1               =        5.45
12  Fc1ccc(-n2cc(-c3n[nH]c4cc(Cl)c(N[C@@H]5CCNC5)cc34)cn2)cc1               =        6.16
13  Cn1cc(-c2n[nH]c3ccc(N[C@H]4CCNC4)cc23)cn1               <        4.30
14  Clc1cc2[nH]nc(-c3cnn(-c4ccccc4)c3)c2cc1N[C@@H]1CCNC1               =        6.18

Reference source: ChEMBL document CHEMBL4840343
